Experiment: Plasma pharmacokinetics of ropivacaine in sciatic nerve blockade model
Type: in vivo, Sprague-Dawley rats
Settings: Sprague-Dawley, rat, plasma; 24 mg/kg at left sciatic nerve, male rats
Procedure: Male Sprague-Dawley rats, approximately 400-500 g in weight, were anesthetized with 3-5% isoflurane and maintained as required. […] Blood samples were taken from the tail veins and quantified using mass-spectrometry. […] All statistical analyses were performed using GraphPad Prism (GraphPad Software 6, San Diego, CA, USA). Differences among 4 groups were assessed by one-way ANOVA followed by either Dunnett's or Tukey's multiple comparisons test to identify statistical significance. […]
Counter-ions that a name gives are not always drawn.
endpoint: Cmax (ng/mL)
Give the quantity in ng/mL, number only.

**Query** Given CCCN1CCCC[C@H]1C(=O)Nc1c(C)cccc1C [ropivacaine solution, ropivacaine·HCl] , respond with its Cmax.
**Result** 1000

====

Assay: Plasma pharmacokinetics of ropivacaine in sciatic nerve blockade model
Assay type: in vivo, Sprague-Dawley rats
Conditions: Sprague-Dawley, rat, plasma; 24 mg/kg at left sciatic nerve, male rats
Procedure: Male Sprague-Dawley rats, approximately 400-500 g in weight, were anesthetized with 3-5% isoflurane and maintained as required. […] Blood samples were taken from the tail veins and quantified using mass-spectrometry. […] All statistical analyses were performed using GraphPad Prism (GraphPad Software 6, San Diego, CA, USA). Differences among 4 groups were assessed by one-way ANOVA followed by either Dunnett's or Tukey's multiple comparisons test to identify statistical significance. […]
Counter-ions that a name gives are not always drawn.
endpoint: Tmax (h)
Give the quantity in h, number only.

**Query** Given CCCN1CCCC[C@H]1C(=O)Nc1c(C)cccc1C [ropivacaine solution, ropivacaine·HCl] , respond with its Tmax.
**Result** 1

The origin of these recorded values is patent US12419878B2.
